Give measured EC50 for each item. Keep answers brief.
# test-system: SARS-CoV-2 RBD (SARS-CoV-2, UniProt P0DTC2)
# test: ELISA
One number for each entry, in ng/mL.

binder	EC50 [ng/mL]
C150 (antibody, V domains shown) VH: EVQLVESGGGLVQPGGSLRLSCVASGFTFSSYWMHWVRQVPGKGPVWVSHINSEGSSTNYADSVRGRFTISRDNAKDTLYLQMNNLRAEDTAVYYCARPTAVAAAGNYFYYYGMDVWGQGTTVTVSS VL: QSALTQPASVSGSPGQSITISCTGTSSDVGYYNFVSWYQQHPGKAPKLMIYEVSNRPSGVSNRFSGSKSGNTASLIISGLQAEDEADYYCSSYRSSSTLVFGGGTKLTVL	8.11
C105 (antibody, V domains shown) VH: QVQLVESGGGLIQPGGSLRLSCAASGFTVSSNYMSWVRQAPGKGLEWVSVIYSGGSTYYADSVKGRFTISRDNSKNTLYLQMNSLRAEDTAVYYCARGEGWELPYDYWGQGTLVTVSS VL: QSALTQPPSASGSPGQSVTISCTGTSSDVGGYKYVSWYQQHPGKAPKLMIYEVSKRPSGVPDRFSGSKSGNTASLTVSGLQAEDEADYYCSSYEGSNNFVVFGGGTKLTVL	5.2
C022 (antibody, V domains shown) VH: QVQLQESGPGLVKPSETLSVTCTVSGGSISSSRYYWGWIRQPPGKGLEWIGSIYYSGSTYYNPSLKSRVTISVDTSKNQFSLKLSSVTAADTAVYYCARHAAAYYDRSGYYFIEYFQHWGQGTLVTVSS VL: DIQMTQSPSTLSASVGDSVTITCRASQSISSWLAWYQQKPGKAPKLLIYKASSLESGVPSRFSGSGSGTEFTLTISSLQPDDFATYYCQQYNNYRYTFGQGTKLEIK	2.4
C126 (antibody, V domains shown) VH: QVQLQESGPGLVKPSETLSLSCAVSGGSIGSYFWSWIRQPPGKGLEWIGYLHYSGSTNYNPSLKSRVTISVDTSKNQFSLKLSSVTAADTAVYYCARLQWLRGAFDIWGQGTMVTVSS VL: NFMLTQPHSVSESPGKTVTISCTGSSGSIASNYVQWYQQRPGSAPTTVINEDNQRPSGVPDRFSGSIDSSSNSASLTISGLKTEDEADYYCQSYDSSNLVFGGGTKLTVL	4.78
C104 (antibody, V domains shown) VH: QVQLQQWGAGLLKPSETLSLSCAVYGGSLSGYYWSWIRQPPGKGLEWIGEINHFGSTGYNPSLKSRVTISVDTSKSQFSVKLSSVTAADTAVYYCARKPLLYSNLSPGAFDIWGQGTMVTVSS VL: EIVLTQSPGTVSLSPGERATLSCWASQSVSASYLAWYQQKPGQAPRLLIYGASSRATGIPDRFSGSGSGTDFTLTISRLEPEDFAVYYCQQYGTTPRTFGGGTKVEIK	8.31

Please look at the items below and tell me EC50 for each one, in order.
1. C140 (antibody, V domains shown) VH: EVQLVESGGGLVQPGGSLRLSCAASGVTVSSNYMSWVRQAPGKGLEWVSLIYSGGSTFYADSVKGRFTISRDNSENTLYLQMNTLRAEDTAVYYCARDLYYYGMDVWGQGTTVTVSS VL: DIQLTQSPSFLSASVGDRVTITCRASQGISSYLAWYQQKPGKAPKLLIYAASTLQSGVPSRFSGSGSGTEFTLTISSLQPEDFATYYCQQLNSYSYTFGQGTKLEIK
2. C145 (antibody, V domains shown) VH: EVQLVESGGGLIQPGGSLRLSCAASGFSVSSNYMSWVRQAPGKGLEWVSVIYSGGSTYYADSVKGRFTISRDNSKNTLYLQMNSLRAEDTAVYYCAREGEVEGYYDFWSGYSRDRYYFDYWGQGTLVTVSS VL: QSALTQPASVSGSPGQSITISCTGTSSDVGGYNYVSWYQQHPGKAPKLMIYDVSNRPSGVSNRFSGSKSGNTASLTISGLQAEDEADYYCSSYTSSTTRVFGTGTRVTVL
3. C138 (antibody, V domains shown) VH: EVQLVESGGGLVQPGGSLRLSCAASGFTFSTYWMSWVRQPPGKGLEWVANIKQDGSEKYYVDSVKGRFTISRDNAKNSLYLQMNSLRADDTAVYYCAGGTWLRSSFDYWGQGTLVTVSS VL: NFMLTQPHSVSESPGKTVTISCTGSSGSIASNYVQWYQQRPGSAPTTVIYEDNQRPSGVPDRFSGSIDSSSNSASLTISGLKTEDEADYYCQSYDSSNWVFGGGTKLTVL
4. C164 (antibody, V domains shown) VH: EVQLVESGGGLVQPGGSLRLSCAASGFSVSTKYMTWVRQAPGKGLEWVSVLYSGGSDYYADSVKGRFTISRDNSKNALYLQMNSLRVEDTGVYYCARDSSEVRDHPGHPGRSVGAFDIWGQGTMVTVSS VL: QSALTQPASVSGSPGQSITISCTGTSNDVGSYTLVSWYQQYPGKAPKLLIFEVTKRSSGISNRFSGSKSGNTASLTISGLQGEDEADYYCCSYAGASTFVFGGGTKLTVL

OUT:
[2.19, 3.86, 2.94, 2.06]
